System: L1210 leukemia ip in BDF1 mice, survival T/C
test.name: NCI In Vivo Anticancer Drug Screen. Data for tumor model L1210 Leukemia (intraperitoneal) in B6D2F1 (BDF1) mice
assay.context: endpoint: mean survival time; dose: 150.0 mg/kg/injection; schedule: Q01DX001 (ip); vehicle: carboxymethylcellulose (CMC)
Toxic doses and inconclusive results are not listed. Cut-off read from the data, not from the text of the source: active = T/C of 150% or more; inactive = T/C below 125%.
Outcome codes: 1 (active), 0 (inactive)

[[record]]
molecule = "Nc1nc(=S)c2ncn(C3OC(CO)C(O)C3O)c2[nH]1 (configuration not stated)"
cat = 1

[[record]]
molecule = "Cc1ccc2c(ccc(/C=C/c3ccc(O)c4ccccc34)[n+]2C)c1"
cat = 0

[[record]]
molecule = "Nc1cccc(C(=O)O)c1C(=O)O"
cat = 0

[[record]]
molecule = "CN(C)CCN(Cc1ccccc1)c1ccccn1"
cat = 0

[[record]]
molecule = "CCC(=N)C1CCCCC1"
cat = 0

[[record]]
molecule = "N#CSCc1ccccc1"
cat = 0

[[record]]
molecule = "O=C(O)Cc1ccccc1"
cat = 0

